Test Target: SARS-CoV PL^pro (Severe acute respiratory syndrome coronavirus)
Readout Kind: pKd
Units for pKd: none; it is -log10 of a concentration expressed in mol/L.

Given the entry `CC(C)=CCc1cc(C(=O)/C=C/c2ccc(O)c(O)c2)c(O)cc1O` , report its measured pKd.
3.89

Continue with `CC(C)=CCc1cc(-c2oc3cc(O)c(CC=C(C)C)c(O)c3c(=O)c2O)cc(O)c1O`
3.67

Continue with `CC(C)=CCc1cc(C(=O)/C=C/c2ccc(O)cc2)c(O)cc1O`
4.13

Continue with `COc1cc(O)ccc1CCCc1cc(O)c(O)c(CC=C(C)C)c1CC=C(C)C`
3.09
